# experimental.target: T1, human CNTN4-rabbit Fc (human; rabbit, UniProt Q8IWV2 19-1000, limits assumed)
# T1 construct: not shown: rabbit Fc
# T1 sequence (looked up): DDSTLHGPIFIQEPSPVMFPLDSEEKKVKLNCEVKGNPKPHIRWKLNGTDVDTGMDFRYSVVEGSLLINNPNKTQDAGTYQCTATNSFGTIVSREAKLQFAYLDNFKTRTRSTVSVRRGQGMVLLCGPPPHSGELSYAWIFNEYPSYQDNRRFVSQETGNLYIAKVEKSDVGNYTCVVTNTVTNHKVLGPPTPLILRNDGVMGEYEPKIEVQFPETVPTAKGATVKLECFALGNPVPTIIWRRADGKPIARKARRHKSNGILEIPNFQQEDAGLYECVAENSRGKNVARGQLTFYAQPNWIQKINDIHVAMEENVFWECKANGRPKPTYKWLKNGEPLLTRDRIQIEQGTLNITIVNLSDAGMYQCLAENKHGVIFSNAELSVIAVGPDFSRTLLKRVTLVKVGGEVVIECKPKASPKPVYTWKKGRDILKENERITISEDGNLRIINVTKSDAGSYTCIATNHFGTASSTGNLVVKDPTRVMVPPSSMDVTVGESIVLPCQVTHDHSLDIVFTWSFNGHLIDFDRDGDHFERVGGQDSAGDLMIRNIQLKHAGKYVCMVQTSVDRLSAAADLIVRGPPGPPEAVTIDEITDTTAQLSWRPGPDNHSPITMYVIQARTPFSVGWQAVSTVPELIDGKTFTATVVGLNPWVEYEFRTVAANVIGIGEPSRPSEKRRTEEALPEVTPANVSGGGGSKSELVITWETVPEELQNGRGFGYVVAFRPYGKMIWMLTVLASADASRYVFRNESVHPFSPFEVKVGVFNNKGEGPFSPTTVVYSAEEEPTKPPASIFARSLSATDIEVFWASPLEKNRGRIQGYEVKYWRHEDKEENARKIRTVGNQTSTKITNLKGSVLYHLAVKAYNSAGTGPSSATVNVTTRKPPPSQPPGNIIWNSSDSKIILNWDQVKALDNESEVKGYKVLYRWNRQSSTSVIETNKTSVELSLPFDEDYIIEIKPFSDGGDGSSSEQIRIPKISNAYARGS
# method: ELISA, plate coated with antigen-rabbit Fc, anti-human kappa-HRP
measured.metric: EC50
Number first, unit second.

1. anti-CNTN4 scFv-hCk S46 (scFv, part only; not given: linker and kappa constant region, not shown: a dimerising Fc or GST) scFv, part: ALTQPSSVSANPGETVEITCSGGSGSYGWYQQKAPGSAPVTVIYDNTNRPSNIPSRFSGSGSDSTGTLTITGVQADDKAVYYCGSYDSIEVIFGAGTTLTVLAVTLDESGGGLHTPGGALSLVCKASGFTFSSYGMAWVRQAPGKGLEWVAGITSSGSSAGYGPAVKGRATISRDNGQSTVRLQLNNLRAEDTATYYCAKDGYIYSGADSDSIDAWGHGTEVIVSS : 1.22 nM

Now for another entry.
What does the data say about its EC50? Entry: anti-CNTN4 scFv-hCk S99 (scFv, part only; not given: linker and kappa constant region, V domains shown, not shown: another chain or arm of the molecule; a dimerising Fc or GST; small tags and cut ends) VL: ALTQPSSVSANPGETVKITCSGGASYAGNYYYGWYQQKSPGSAPVTVIYNNNQRPSDIPSRFSGSLSGSTNTLTITGVQADDEAVYFCGSDDSSAGYTGIFGAGTTLTVL VH: AVTLDESGGGLQTPGGALSLVCKASEFTFSGYGMHWVRQAPGKGLEFVAEISNTGSWTGYGAAVKGRATISRDNGQSTVRLQLNNLKADDTATYYCAKVGGRGWCGRSGCADDIDAWGHGTEVIVSS
8.34 nM

FYI, the data here is from patent US20240182563A1.
